# reported IC50; entries follow
Biological target: recombinant human MMP-8 (Homo sapiens (Human))
Sequence (P22894 101-467): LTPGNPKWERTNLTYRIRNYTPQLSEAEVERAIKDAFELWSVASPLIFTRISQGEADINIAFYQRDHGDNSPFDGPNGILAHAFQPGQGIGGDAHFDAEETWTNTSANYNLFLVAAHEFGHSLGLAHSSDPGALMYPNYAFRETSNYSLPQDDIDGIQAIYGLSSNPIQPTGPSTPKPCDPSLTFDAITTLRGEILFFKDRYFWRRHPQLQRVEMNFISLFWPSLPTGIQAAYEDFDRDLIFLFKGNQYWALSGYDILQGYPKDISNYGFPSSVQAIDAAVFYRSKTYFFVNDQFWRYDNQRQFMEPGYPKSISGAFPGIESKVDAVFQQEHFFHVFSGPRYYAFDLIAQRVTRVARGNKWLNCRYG
Assay: MMP selectivity assay, MMP-8
Conditions: Table 2 selectivity profile; read-out: MMP-8 Activity (IC50 class)
Description: The inhibitory effect of compounds on the rate of cleaving fluorogenic MMP substrate (Enzo, BML-P128) by recombinant human MMP-12 catalytic domain (Enzo, BML-SE138) was carried out by methods known in the art. […] The enzyme and compounds were pre-incubated on a shaker to mix in wells. […] The plate was then fed into a plate reader to measure fluorescence intensity at Excitation/Emission wavelengths of 340 nm/440 nm every 10 mins for at least 1 hour at 37° C. […]

{"compound": "Cc1cc(COc2ccc(Sc3ccncc3C3NC(=O)NC3=O)cc2C)ccn1 (stereo not drawn) [PC-48]", "IC50": "> 1000 nM"}
{"compound": "O=C1NC(=O)C(c2cnccc2Sc2ccc(OCc3cccc(O)c3)cc2)N1 (stereo not drawn) [PC-10]", "IC50": "> 1000 nM"}
{"compound": "O=C1NC(=O)C(c2ccncc2Sc2ccc(OCc3cccc(CO)c3)cc2)N1 (stereo not drawn) [PC-13]", "IC50": "> 1000 nM"}
{"compound": "CCC1(c2cnccc2Sc2ccc(OCc3cccc(C)c3)cc2)NC(=O)NC1=O (stereo not drawn) [PC-22]", "IC50": "> 1000 nM"}
{"compound": "O=C1NC(=O)C(c2ccncc2Sc2ccc(OCc3ccccc3CO)cc2)N1 (stereo not drawn) [PC-12]", "IC50": "> 1000 nM"}

Entry O=C1NC(=O)C(c2sccc2Sc2ccc(OCc3ccccc3CO)cc2)N1 (stereo not drawn) [TC5] ; IC50 = > 1000 nM

====

molecular target: recombinant human MMP-12 catalytic domain (Homo sapiens (Human)); assay: MMP-12 inhibitory assay (fluorogenic substrate cleavage); assay type: biochemical; conditions: readout at 30 minutes, 37° C., pH 7.5; Table 1; read-out: MMP-12 IC50
Each entry below carries its recorded IC50.

{"compound": "Cc1cc(COc2ccc(Sc3ccncc3C3(C)C(=O)N(C)C(=O)N3C)cc2)ccn1 (centres unmarked)", "measured value": "> 1 µM"}

IC50 measured on O=C1NC(=O)C(c2cnccc2Sc2ccc(OCc3ccnc(C(=O)O)c3)cc2)N1 (centres unmarked) = > 1 µM

response.value for O=C1NC(=O)C(c2cnccc2Sc2ccc(OCc3ccnc(CO)c3)cc2)N1 (centres unmarked) (field: IC50) = < 0.01 µM

IC50 for O=C1NC(=O)C(c2ccncc2Sc2ccc(OCc3cccc(O)c3)cc2)N1 (centres unmarked) is < 0.01 µM

For this compound ( NC(=O)c1ccncc1COc1ccc(Sc2ccncc2C2NC(=O)NC2=O)cc1 (centres unmarked) ), measured IC50 is > 1 µM

Input O=C1NC(=O)C(c2ccncc2Sc2ccc(OCc3ccccc3CO)cc2)N1 (centres unmarked) . Output IC50: < 0.01 µM

Record O=C1NC(=O)C(c2sccc2Sc2ccc(OCc3cccc(O)c3)cc2)N1 (centres unmarked) , field IC50: < 0.01 µM

====

molecular target: recombinant human MMP-12 catalytic domain (Homo sapiens (Human), UniProt P39900); test: MMP-12 inhibitory assay (fluorogenic substrate cleavage); type: biochemical; details: readout at 30 minutes, 37° C., pH 7.5; Table 1; read-out: MMP-12 IC50
Sequence (P39900 106-268): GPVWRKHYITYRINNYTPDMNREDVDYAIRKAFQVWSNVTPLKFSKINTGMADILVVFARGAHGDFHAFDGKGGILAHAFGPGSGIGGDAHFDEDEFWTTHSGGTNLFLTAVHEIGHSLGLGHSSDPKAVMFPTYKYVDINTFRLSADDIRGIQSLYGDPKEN
property label: IC50

{"molecule": "Cc1cc(COc2ccc(Sc3ccncc3C3C(=O)N(C)C(=O)N3C)cc2)ccn1 (stereo not shown) [PC-54]", "measured value": "> 1000 nM"}
{"molecule": "NC(=O)c1cccc(COc2ccc(Sc3ccncc3C3NC(=O)NC3=O)cc2)c1 (stereo not shown) [PC-28]", "measured value": "< 10 nM"}
{"molecule": "Cc1cc(COc2ccc(Sc3ccncc3C3NC(=O)NC3=O)c(F)c2)ccn1 (stereo not shown) [PC-50]", "measured value": "< 10 nM"}

Value of IC50 reported for the molecule Cc1cc(COc2ccc(Sc3cnn(C)c3C3NC(=O)NC3=O)cc2)ccn1 (stereo not shown) [OC-12] is < 10 nM

Notebook: CCC1(c2ccncc2Sc2ccc(OCc3ccnc(C)c3)cc2)NC(=O)NC1=O (stereo not shown) [PC-64] , IC50 read as < 10 nM

Lab note: measured IC50 of O=C1NC(=O)C(c2cnccc2Sc2ccc(OCc3cccc(CO)c3)cc2)N1 (stereo not shown) [PC-8] was < 10 nM

Data point: O=C1NC(=O)C(c2ccncc2Sc2ccc(OCc3cncc(CO)c3)cc2)N1 (stereo not shown) [PC-47] ; IC50 = > 1000 nM

Kindly note the recorded IC50 for Cc1cc(COc2ccc(Sc3ncn(C)c3C3NC(=O)NC3=O)cc2)ccn1 (stereo not shown) [OC-13] , which is < 10 nM

Notebook: O=C1NC(=O)C(c2sccc2Sc2ccc(OCc3ccccc3CO)cc2)N1 (stereo not shown) [TC5] , IC50 read as < 10 nM

For record Cc1cccc(OCc2ccc(Sc3ccncc3C3NC(=O)NC3=O)cc2)c1 (stereo not shown) [PC-43] the listed IC50 is > 1000 nM

Record O=C1NC(=O)C(c2ccncc2Sc2ccc(OCc3cncc(C(=O)O)c3)cc2)N1 (stereo not shown) [PC-24] . Reported IC50: > 1000 nM
